B1: Connector enhancer of kinase suppressor of ras 2, residues 9 to 71; numbered along this chain, Q8WXI2 (parent)
chain: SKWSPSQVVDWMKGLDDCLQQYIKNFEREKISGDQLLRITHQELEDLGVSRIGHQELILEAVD

# Variants of: B1
# ASSAY DETAILS: abundance fitness (aPCA) (normalised: wild type 0, dead -1); higher = more abundant; growth selection in yeast, the domain comes from the species named
# CONDITION DESCRIPTION: Homo sapiens
QUANTITY MEASURED: abundance fitness
Numbers only.

See these solved cases before continuing.
>  <SEQUENCE VARIANT>
Q42C

>  <abundance fitness>
-0.395

$$$$
>  <SEQUENCE VARIANT>
H54E

>  <abundance fitness>
-0.412

$$$$

Could you now consider this next variant?
Requested read-out: abundance fitness. Entry: "D16S"
-0.402
